Biological target: USP47 (UniProt Q96K76)
Sequence (Q96K76 whole entry, the tested form may be a part): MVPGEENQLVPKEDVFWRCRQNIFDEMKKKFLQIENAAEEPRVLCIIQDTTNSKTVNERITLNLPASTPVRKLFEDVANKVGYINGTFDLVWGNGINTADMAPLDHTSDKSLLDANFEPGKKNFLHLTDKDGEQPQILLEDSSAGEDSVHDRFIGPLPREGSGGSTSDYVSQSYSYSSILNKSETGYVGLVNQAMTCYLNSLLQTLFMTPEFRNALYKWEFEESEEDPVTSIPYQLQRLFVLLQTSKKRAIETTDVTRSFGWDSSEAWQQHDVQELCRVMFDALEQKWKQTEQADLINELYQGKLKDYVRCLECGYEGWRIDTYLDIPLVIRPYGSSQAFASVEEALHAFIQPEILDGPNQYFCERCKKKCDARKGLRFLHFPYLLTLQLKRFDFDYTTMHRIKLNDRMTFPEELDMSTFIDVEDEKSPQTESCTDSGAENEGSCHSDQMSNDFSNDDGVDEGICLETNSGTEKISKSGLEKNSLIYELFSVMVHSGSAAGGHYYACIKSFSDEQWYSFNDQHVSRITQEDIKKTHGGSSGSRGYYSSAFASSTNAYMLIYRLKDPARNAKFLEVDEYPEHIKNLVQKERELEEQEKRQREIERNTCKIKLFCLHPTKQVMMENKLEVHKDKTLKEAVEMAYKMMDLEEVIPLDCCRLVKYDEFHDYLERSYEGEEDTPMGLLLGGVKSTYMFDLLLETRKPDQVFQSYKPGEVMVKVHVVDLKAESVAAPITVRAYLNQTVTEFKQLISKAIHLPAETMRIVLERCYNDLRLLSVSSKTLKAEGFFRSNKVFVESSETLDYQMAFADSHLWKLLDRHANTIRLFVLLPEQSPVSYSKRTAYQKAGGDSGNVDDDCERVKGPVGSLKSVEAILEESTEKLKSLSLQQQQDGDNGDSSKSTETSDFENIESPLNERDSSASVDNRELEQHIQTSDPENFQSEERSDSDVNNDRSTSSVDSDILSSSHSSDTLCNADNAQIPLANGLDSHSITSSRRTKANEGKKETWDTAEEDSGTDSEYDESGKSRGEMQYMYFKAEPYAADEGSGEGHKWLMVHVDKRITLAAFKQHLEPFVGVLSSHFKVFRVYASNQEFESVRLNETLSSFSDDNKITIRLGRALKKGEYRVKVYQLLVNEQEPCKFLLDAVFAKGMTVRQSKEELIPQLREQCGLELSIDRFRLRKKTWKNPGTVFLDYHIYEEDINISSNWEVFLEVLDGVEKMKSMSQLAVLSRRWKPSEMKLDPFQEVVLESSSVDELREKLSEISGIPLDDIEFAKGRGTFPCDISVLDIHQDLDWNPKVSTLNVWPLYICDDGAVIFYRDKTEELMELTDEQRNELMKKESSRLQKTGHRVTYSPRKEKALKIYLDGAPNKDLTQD
Experiment: log2 ratio of Biotin-Ahx-Ub-VS probe labelling (fragment/DMSO); higher = less target engagement (more negative = stronger competition), active = hit call of the paper (q ≤ 0.05, log2 ratio ≤ -1)
Conditions: compound concentration: 200 uM; treatment time: 3 h
METRIC: log2 ratio of Biotin-Ahx-Ub-VS probe labelling
No unit in the answer, only the number.

# annotated cases, reported log2 ratio of Biotin-Ahx-Ub-VS probe labelling shown
COMPOUND | RESULT VALUE
O=C(CCl)NCCc1ccc(F)cc1 | -0.0571
Cc1ccc(N2CCC(NC(=O)CCl)C2=O)cc1 (stereo not drawn) | -0.186
O=C(CCl)N1CCOCCC1c1ccccc1 (stereo not drawn) | -0.596
O=C(CCl)N1CCC2(CCC(O)CC2)CC1 | -0.0514
O=C(CCl)N1CCC[C@@H]1c1ccon1 | -0.264
CN(CCc1ncc(Br)cn1)C(=O)CCl.Cl | -0.331

Could you tell me which log2 ratio of Biotin-Ahx-Ub-VS probe labelling is on file for O=C(CCl)N1CCC(C(O)c2ccc(F)cc2)CC1 (stereo not drawn) ?
-0.324

Could you tell me which log2 ratio of Biotin-Ahx-Ub-VS probe labelling is on file for O=C(CCl)N1CCC(C(=O)N2CCCC2)CC1 ?
-0.0567

Could you tell me which log2 ratio of Biotin-Ahx-Ub-VS probe labelling is on file for Cc1ccc(C(=O)NCCNC(=O)CCl)cc1 ?
-0.158

Could you tell me which log2 ratio of Biotin-Ahx-Ub-VS probe labelling is on file for O=C(CCl)N1CCC(c2noc3cc(F)ccc23)CC1 ?
-0.18

Could you tell me which log2 ratio of Biotin-Ahx-Ub-VS probe labelling is on file for O=C(CCl)NCc1ccc(Cl)cc1 ?
-0.0592
